experiment: chemical genetic growth profiling, strain panel (AID 1159580);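 also: tested at 20 µM; growth read once vehicle control cultures reached saturation at 30 °C; 1 = growth at the plate median or of vehicle wells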; settings: S. cerevisiae deletion strains, growth OD, locus YDL132W, strain cdc53, stronger effect = lower value
About 2,000 (36%) of roughly 5,500 compounds were called active. About 18% were inconclusive and are not listed. Some of the results follow.
Recorded normalized growth by entry
When you answer, write just the number.

[[record]]
compound = "C/C(=N/Nc1ccccc1)c1cc(Cl)cc(Cl)c1O"
val = 0.956


What does the data say about its normalized growth? Entry: O=C(Nc1cccc2ccccc12)c1ccccc1O 0.834

Another compound to look at: Cc1nn(Cc2nnc(SCc3cccc(C(F)(F)F)c3)o2)c(C)c1Br 0.969

Another compound to look at: COc1ccc(CC2CCC(=NOC(=O)c3c(Cl)cccc3Cl)CC2)cc1 (centres undefined) 1.01

Another compound to look at: CS(=O)(=O)/C(C#N)=C/c1ccccc1OCc1c(Cl)cccc1Cl 0.96

Another compound to look at: COc1ccc(OC)c(-c2ccn[nH]2)c1OCc1ccccc1 0.987

Another compound to look at: COc1ccc(CC2CCC(=NOC(=O)c3ccc(C(C)(C)C)cc3)CC2)cc1 (centres undefined) 0.977

Another compound to look at: O=C(Nc1ccc(Cl)cc1)O/N=C\c1ccn(-c2ccccc2)n1 0.954

Another compound to look at: O=C(CCn1c(=O)oc2ccccc21)Sc1ccc(C(F)(F)F)cc1 0.965

====

experiment: chemical genetic growth profiling, strain panel (AID 1159580); conditions: S. cerevisiae deletion strains, growth OD, locus YGL167C, strain pmr1, stronger effect = lower value
Out of some 5,500 compounds screened, about 2,000 (36%) were called active. About 18% were inconclusive and are not listed. The list shows a part of the results.
Readout name: normalized growth
When you answer, write just the number.

Examples with their reported normalized growth follow.
[[record]]
compound = "COC(=O)CCC(C)C1CCC2C3CC[C@@H]4C[C@H](O)CC[C@]4(C)C3C[C@H](O)[C@]12C (stereo not given in full)"
val = 0.971

[[record]]
compound = "C=C1C(C2(C)C=CC(=O)C(C)(C)C2CC(=O)OC)CC[C@@]2(C)[C@H](c3ccoc3)OC(=O)C3OC132 (stereo not given in full)"
val = 0.989

[[record]]
compound = "C[C@@H]1O[C@@H](O[C@H]2C[C@@H](O)[C@]3(CO)C4C(CC[C@]3(O)C2)[C@@]2(O)CC[C@H](C3=CC(=O)OC3)[C@@]2(C)C[C@H]4O)[C@H](O)[C@H](O)[C@H]1O (stereo not given in full)"
val = 1.03


What does the data say about its normalized growth? Entry: Cc1nc2ccccn2c(=O)c1CCN1CCC(C(=O)c2ccc(F)cc2)CC1 0.983

Another compound to look at: CC(CCC(=O)O)[C@H]1CCC2C3CC[C@@H]4C[C@H](O)CC[C@]4(C)C3C[C@H](O)[C@@]21C (stereo not given in full) 0.999

Another compound to look at: CC(CCC(=O)O)[C@H]1CCC2C3CC[C@@H]4C[C@H](O)CC[C@]4(C)C3CC[C@@]21C (stereo not given in full) 0.988

Another compound to look at: COc1cc(C)c(C(=O)Oc2cc(C)c(C(=O)O)c(O)c2C)c(OC)c1C 0.964

Another compound to look at: CC1(C)C(O)CC(O)C2(C)C1CC(O)C1(C)C2CCC2(C)C(c3ccoc3)OC(=O)C3OC321 (stereo not given) 0.994

Another compound to look at: N[C@H](Cc1cc(I)c(Oc2ccc(O)c(I)c2)c(I)c1)C(=O)O 1

Another compound to look at: CC(CN(C)C)CN1c2ccccc2Sc2ccccc21 (stereo not given) 1.03

Another compound to look at: CC(CN1c2ccccc2Sc2ccccc21)N(C)C (stereo not given) 0.987

Another compound to look at: CN(C)N=Nc1nc[nH]c1C(N)=O 0.981

Another compound to look at: C=C1C2CC[C@@]3(C)[C@H](c4ccoc4)OC(=O)C[C@]13O[C@H]1CC(=O)C(C)(C)C(CC(=O)OC)[C@@]21C (stereo not given in full) 0.97

Another compound to look at: C=C1C2CC[C@@]3(C)[C@H](c4ccoc4)OC(=O)C[C@]13O[C@H]1CC(O)C(C)(C)C(CC(=O)OC)[C@@]21C (stereo not given in full) 0.963

Another compound to look at: COc1cc(OC)c(OC)cc1C=O 1

Another compound to look at: CC(=O)O[C@H]1C[C@@H](OC(C)=O)C(C)(C)C2CC(=O)[C@]3(C)C(CC[C@@]4(C)[C@H](c5ccoc5)OC(=O)[C@H]5O[C@]543)[C@]21C (stereo not given in full) 0.997

Another compound to look at: CC(CN(C)C)CN1c2ccccc2CCc2ccccc21 (stereo not given) 0.98

Another compound to look at: S=P(N1CC1)(N1CC1)N1CC1 1.01

Another compound to look at: N#C/C(=C\c1cccc(O)c1)C(=O)O 0.99

Another compound to look at: CC1CCC2(OC1)OC1CC3C4CCC5C[C@@H](O)CCC5(C)C4=CCC3(C)C1[C@@H]2C (stereo not given in full) 1.01

Another compound to look at: COC(=O)CCC(C)[C@H]1CCC2C3C(C[C@H](O)[C@@]21C)[C@@]1(C)CC[C@@H](O)C[C@H]1C[C@H]3O (stereo not given in full) 1.01

Another compound to look at: CNCCCN1c2ccccc2CCc2ccccc21 1.02

Another compound to look at: CN(C)CCC(c1ccc(Br)cc1)c1ccccn1 (stereo not given) 0.988

Another compound to look at: CC(CCC(=O)O)[C@H]1CCC2C3C[C@H](O)[C@@H]4C[C@H](O)CC[C@]4(C)C3CC[C@@]21C (stereo not given in full) 0.957

====

Recorded normalized growth by entry
experiment: chemical genetic growth profiling, strain panel (AID 1159580);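 also: tested at 20 µM; growth read once vehicle control cultures reached saturation at 30 °C; 1 = growth at the plate median or of vehicle wells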; details: S. cerevisiae deletion strains, growth OD, locus YBR231C, strain swc5, stronger effect = lower value
The whole screen tested about 5,500 compounds, of which about 2,000 (36%) were called active. Another 18% or so got no clear call; they are omitted. The list shows a part of the results.
When you answer, write just the number.

Examples with their reported normalized growth follow.
[[record]]
compound = "CCOC(=O)[C@H](CCc1ccccc1)N[C@@H](C)C(=O)N1Cc2ccccc2C[C@H]1C(=O)O"
val = 1

[[record]]
compound = "C=C1C2CCC3(C)C(c4ccoc4)OC(=O)CC13OC1CC(OC(C)=O)C(C)(C)C(CC(=O)OC)C12C (stereo not given)"
val = 1.02

[[record]]
compound = "Nc1cc(-c2ccncc2)c[nH]c1=O"
val = 0.562

[[record]]
compound = "C=C1C2=CC(=O)O[C@@H](c3ccoc3)[C@]2(C)CCC1[C@@]1(C)C=CC(=O)C(C)(C)[C@@H]1CC(=O)OC (stereo not given in full)"
val = 0.982


What does the data say about its normalized growth? Entry: COc1cc(S(C)=O)ccc1-c1nc2ncccc2[nH]1 (stereo not given) 1.01

====

assay: chemical genetic growth profiling, strain panel (AID 1159580);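 also: tested at 20 µM; growth read once vehicle control cultures reached saturation at 30 °C; 1 = growth at the plate median or of vehicle wells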; settings: S. cerevisiae deletion strains, growth OD, locus YJR075W, strain HOC1, stronger effect = lower value
The campaign covered roughly 5,500 compounds. About 2,000 (36%) were called active. Another 18% or so got no clear call; they are omitted. The list shows a part of the results.
Recorded normalized growth by entry

[[record]]
compound = "COc1cc(S(C)=O)ccc1-c1nc2ncccc2[nH]1 (stereo not given)"
readout_name = "normalized growth"
val = "0.983 (inactive)"

[[record]]
compound = "COc1ccc(C(=O)N2CCCC2=O)cc1"
readout_name = "normalized growth"
val = "0.99 (inactive)"


Query compound follows.
What does the data say about its normalized growth? Entry: COc1ccc(N=Cc2ccccc2O)cc1 0.967 (inactive)

====

assay: chemical genetic growth profiling, strain panel (AID 1159580);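 also: tested at 20 µM; growth read once vehicle control cultures reached saturation at 30 °C; 1 = growth at the plate median or of vehicle wells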; details: S. cerevisiae deletion strains, growth OD, locus YAL021C, strain ccr4
About 2,000 (36%) of roughly 5,500 compounds were called active. Another 18% or so got no clear call; they are omitted. No stated cut-off is given here; in the data, active means normalized growth mostly below about 0.91 (no sharp cut-off); inconclusive means no clear call, values can overlap the other calls; inactive means mostly above about 0.92. This is one part of the list.
Parameter call: string, one of Yes = active, No = inactive

These recorded examples may help you get a feel for the data.
[[record]]
compound = "C=Cc1c(C)c2[n-]c1=Cc1[n-]c(c(CC)c1C)C=c1[n-]c3c(c1C)C(=O)C(C(=O)[O-])C=3c1[n-]c(c(C)c1CCC(=O)[O-])C=2.[Cu] (stereo not drawn)"
class_label = "No"

[[record]]
compound = "N#C/C(=C\\c1cccc(O)c1)C(=O)O"
class_label = "No"

[[record]]
compound = "COc1c(Cl)ccc(Cl)c1C(=O)O"
class_label = "No"

[[record]]
compound = "O=C(Nc1ccccc1)Nc1ccccc1"
class_label = "No"

[[record]]
compound = "CC(=O)N=c1sc(S(N)(=O)=O)nn1C"
class_label = "No"


Returns: the outcome recorded for COc1cc(C)c(C(=O)Oc2cc(C)c(C(=O)O)c(O)c2C)c(OC)c1C in this assay. No

Another compound to look at: C[C@]12C=CC(=O)C=C1CCC1C3C[C@@H](O)[C@](O)(C(=O)CO)[C@@]3(C)C[C@H](O)[C@@]12F (stereo partly drawn) No

Another compound to look at: COc1cc(OC)c(OC)cc1C=O No

Another compound to look at: C=C1C2=CC(=O)O[C@@H](c3ccoc3)[C@]2(C)CCC1[C@@]1(C)C=CC(=O)C(C)(C)[C@@H]1CC(=O)OC (stereo partly drawn) No

Another compound to look at: OC[C@H]1OC([S-])[C@H](O)[C@@H](O)[C@@H]1O.[Au+] (stereo partly drawn) No

Another compound to look at: CN(CCC(N)CC(=O)N[C@H]1C=CC(n2ccc(N)nc2=O)O[C@@H]1C(=O)O)C(=N)N (stereo partly drawn) Yes

Another compound to look at: O=c1[nH]cnc2[nH]ncc12 No

Another compound to look at: NC(=O)c1ncn(C2O[C@H](CO)[C@@H](O)[C@H]2O)c1N (stereo partly drawn) No

Another compound to look at: CNC(=O)Oc1ccc2c(c1)[C@]1(C)CCN(C)[C@@H]1N2C No

Another compound to look at: C[C@H](N)[C@H](O)c1cccc(O)c1 No

Another compound to look at: CN[C@@H]1[C@H](OC2[C@H](O[C@H]3[C@H](O)[C@@H](O)[C@H](N=C(N)N)[C@@H](O)[C@@H]3N=C(N)N)O[C@@H](C)[C@]2(O)C=O)O[C@@H](CO)[C@H](O)[C@H]1O (stereo partly drawn) No

Another compound to look at: C=C1C(C2(C)C=CC(=O)C(C)(C)C2CC(=O)OC)CC[C@@]2(C)[C@H](c3ccoc3)OC(=O)C3OC132 (stereo partly drawn) No
